Here the recorded Change is given for each entry.
Tested on: Mus musculus
Test: Increase in spontaneous locomotion activity after intraperitoneal administration in mice at a dose of 30 mg/Kg
Assay type: functional
Field: numeric (%). Do not append units.

Some solved entries appear below for comparison.
- SMILES: "[O-][n+]1cccc(Oc2ccccc2)c1"
  RECORDED_NUMBER: 45
- SMILES: "Cc1ccc(Oc2ccccc2)c[n+]1[O-]"
  RECORDED_NUMBER: 96
- SMILES: "Cc1c(Oc2ccccc2)ccc[n+]1[O-]"
  RECORDED_NUMBER: 25

Now for a further compound.
Would you kindly share the measured Change for "Cc1cc(Oc2ccccc2)c[n+]([O-])c1" ?
186
